- test-details: Area under curve was determined in carotid blood of rat when administered intraduodenally
- Parameters: concentration or dose not given beside the values
readout-label: AUC (ng·h/mL)

Worked cases, AUC given:
CCCCN(CCCC)C(=O)CN1C[C@H](c2ccc3c(c2)CCO3)[C@@H](C(=O)O)[C@@H]1c1ccc(OC)cc1: 3000
CCCCN(CCCC)C(=O)CN1C[C@H](c2ccc3ccoc3c2)[C@@H](C(=O)O)[C@@H]1c1ccc(OC)cc1: 6170
CCCCN(CCCC)C(=O)CN1C[C@H](c2ccc3c(c2)OCO3)[C@@H](C(=O)O)[C@@H]1c1ccc(OC)cc1: 5830

I. CCCCN(CCCC)C(=O)CN1C[C@H](c2ccc3c(c2)OCC3)[C@@H](C(=O)O)[C@@H]1c1ccc(OC)cc1
II. CCCCN(CCCC)C(=O)CN1C[C@H](c2ccc3occc3c2)[C@@H](C(=O)O)[C@@H]1c1ccc(OC)cc1
Prompt: Lower value of AUC belongs to which: I or II ? # answer = label of selected item
Response: II

---

- measured-target: Endothelin receptor type B (Sus scrofa, UniProt P35463)
- Sequence (P35463 whole entry): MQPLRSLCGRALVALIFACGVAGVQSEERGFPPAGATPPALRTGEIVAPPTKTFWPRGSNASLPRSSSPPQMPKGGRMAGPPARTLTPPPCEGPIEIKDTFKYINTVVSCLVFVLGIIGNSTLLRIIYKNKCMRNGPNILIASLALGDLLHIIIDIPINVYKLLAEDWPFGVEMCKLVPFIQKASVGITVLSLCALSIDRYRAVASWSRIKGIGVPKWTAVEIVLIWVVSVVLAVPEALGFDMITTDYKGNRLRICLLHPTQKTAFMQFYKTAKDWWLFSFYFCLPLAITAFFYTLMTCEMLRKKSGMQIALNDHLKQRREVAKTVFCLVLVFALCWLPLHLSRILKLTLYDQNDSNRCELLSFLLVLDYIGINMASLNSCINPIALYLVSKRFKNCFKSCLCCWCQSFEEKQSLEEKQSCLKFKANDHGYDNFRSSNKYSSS
readout-label: IC50 (µM)

CCCN(C)C(=O)CN1C[C@H](c2ccc3ccoc3c2)[C@@H](C(=O)O)[C@@H]1c1ccc(OC)cc1: 13
CCCN(C)C(=O)CN1C[C@H](c2ccc3cc[nH]c3c2)[C@@H](C(=O)O)[C@@H]1c1ccc(OC)cc1: 35
CCCN(C)C(=O)CN1C[C@H](c2ccc(OC)c(OC)c2)[C@@H](C(=O)O)[C@@H]1c1ccc(OC)cc1: 31

P. CCCCN(CCCC)C(=O)CN1C[C@H](c2cccc3occc23)[C@@H](C(=O)O)[C@@H]1c1ccc(OC)cc1
Q. CCCN(C)C(=O)CN1C[C@H](c2ccc(OC)cc2)[C@@H](C(=O)O)[C@@H]1c1ccc(OC)cc1
Prompt: Could you point out whether the larger IC50 belongs to P or to Q ? # answer = label of selected item
Response: Q
(Q: 16 µM, P: 11 µM)

---

- test-details: Maximum concentration of compound in plasma administered orally to rats
- Assay type: ADME, organism-based
- Design: route oral
- cond: rat, po
readout-label: Cmax (ng/mL)

CCCCN(CCCC)C(=O)CN1C[C@H](c2ccc3c(c2)CCO3)[C@@H](C(=O)O)[C@@H]1c1ccc(OC)cc1: 1500
CCCCN(CCCC)C(=O)CN1C[C@H](c2ccc3ccoc3c2)[C@@H](C(=O)O)[C@@H]1c1ccc(OC)cc1: 4700

a. CCCCN(CCCC)C(=O)CN1C[C@H](c2ccc3c(c2)OCO3)[C@@H](C(=O)O)[C@@H]1c1ccc(OC)cc1
b. CCCCN(CCCC)C(=O)CN1C[C@H](c2ccc3occc3c2)[C@@H](C(=O)O)[C@@H]1c1ccc(OC)cc1
Prompt: Could you point out whether the larger Cmax belongs to a or to b ? # answer = label of selected item
Response: a

meta.source: ChEMBL document CHEMBL1130287
